- test-method-notes: Combinatorial cytotoxicity of gossypol with other natural products, CCK8
- measurement-setup: African green monkey
measure-name: CC50 at 3 days (µM)
The response must be a number in µM with no trailing unit.

So for C[C@@H]1CC[C@@]2(OC1)O[C@H]1[C@@H](O)[C@H]3[C@@H]4CC[C@H]5C[C@@H](O[C@@H]6O[C@H](CO)[C@H](O[C@@H]7O[C@H](CO)[C@@H](O)[C@H](O[C@@H]8OC[C@@H](O)[C@H](O)[C@H]8O)[C@H]7O[C@@H]7O[C@H](CO)[C@H](O)[C@H](O[C@@H]8O[C@H](CO)[C@@H](O)[C@H](O)[C@H]8O)[C@H]7O)[C@H](O)[C@H]6O)[C@H](O)C[C@]5(C)[C@H]4CC[C@]3(C)[C@H]1[C@@H]2C [Digitonin, digitonin] , the logged CC50 at 3 days turned out to be 50.6

Where these numbers come from: paper PMC6893700
